Entries and their measured Kd follow.
# assayed.target: T1, soluble extracellular domain of human IL-5 receptor alpha subunit (sIL-5Rα) (human, UniProt Q01344)
# T1 construct: human IL-5 receptor alpha subunit (IL-5Rα, CD125), extracellular domain, residues 21–333; subcloned from a cDNA of residues 1–420; Expressed from the pSecTag2A vector; migrates at ~50 kDa (glycosylated); A biotinylated form (BirA) was used only for library screening; also called sIL-5α; CD125; source: HEK293F, transiently transfected, purified (Ni-NTA); not shown: Avi, C-terminal, kept; His6, …
# T1 sequence (Q01344 21-333): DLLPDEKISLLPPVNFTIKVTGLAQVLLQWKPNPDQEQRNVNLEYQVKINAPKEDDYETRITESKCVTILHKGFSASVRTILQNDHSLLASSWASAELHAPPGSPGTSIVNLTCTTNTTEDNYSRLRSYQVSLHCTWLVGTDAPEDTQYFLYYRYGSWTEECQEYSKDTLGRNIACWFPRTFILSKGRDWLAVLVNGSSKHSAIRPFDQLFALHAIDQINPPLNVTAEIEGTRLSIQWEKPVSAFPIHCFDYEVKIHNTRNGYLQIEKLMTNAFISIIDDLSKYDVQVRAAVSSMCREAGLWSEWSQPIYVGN
# assay.protocol: BLI; Octet QKe, 30°C, 1× kinetics buffer in PBS pH 7.4; Ab immobilised on anti-human IgG Fc capture (AHC) biosensors, sIL-5Rα as analyte; association 300 s, dissociation 600 s; 1:1 binding model
# particulars: both partners purified
Write the value in µM as a bare number.

Use these answered entries as a reference point.
{"binder": "m2B7 murine anti–IL-5Rα antibody (antibody, V domains shown, VH of murine m2B7; FRs of mouse germline IGHV1-61*01; VL of murine m2B7; FRs of mouse germline IGKV6-23*01; source: hybridoma supernatant, expanded and purified) VH: QVQLQQPGAELVRPGASVKLSCKASGYTFTSYWINWVKQRPGQGLEWIGHIYPSESYTNYNQKFKDKATLTVDKSSSTAYMQLSSPTSEDSAVYYCTRDYYGRSYYYAMDYWGQGTSVTVSS VL: DIVMTQSHKFMSTSVGDRVSITCKASQNVGTAVAWYQQKPGQSPKLLIYWASTRHTGVPDRFTGSGSGTDFTFTISNVQSEDLADYFCQQFGRYPYTFGGGTKLEIK", "Kd [µM]": 0.0402}
{"binder": "5R65.45 (antibody, V domains shown, as the VH of m6 (5R65) with mutations in VH-CDR3 (Kabat residues 95–100d were randomised); no mutations in VL-CDR3; Human IgG1, kappa; selected as scFab by yeast display from the 5R65 CDR3 library under kinetic screening; source: HEK293F, purified (Protein A)) VH: QVQLVQSGAEVKKPGSSVKVSCKASGYTFTSYWINWVRQAPGQGLEWIGHIYPNKNENYYNHKFKDKATLTVDKSTNTAYMELSSLRSEDTAVYYCTREYYGRSYYNAMDYWGQGTTLTVSS VL: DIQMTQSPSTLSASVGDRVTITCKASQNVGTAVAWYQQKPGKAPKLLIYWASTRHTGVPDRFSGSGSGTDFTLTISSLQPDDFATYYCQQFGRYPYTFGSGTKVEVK", "Kd [µM]": 0.00726}

Turning to the following binder.
// returns reported Kd for input 5R65 (antibody, V domains shown, Human IgG1, kappa; selected as scFab by yeast display from the hu2B7 VH-CDR2 library; also called 5R65 Ab; source: HEK293F, purified (Protein A)) VH: QVQLVQSGAEVKKPGSSVKVSCKASGYTFTSYWINWVRQAPGQGLEWIGHIYPNKNENYYNHKFKDKATLTVDKSTNTAYMELSSLRSEDTAVYYCTRDYYGRSYYYAMDYWGQGTTLTVSS VL: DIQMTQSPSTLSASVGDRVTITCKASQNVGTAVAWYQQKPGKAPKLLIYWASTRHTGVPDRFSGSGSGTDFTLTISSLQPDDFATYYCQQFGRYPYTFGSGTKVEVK
0.0145
